Reported IC50 values for a set of molecules
# assay.system: full-length RORγt in Jurkat cells (Homo sapiens (Human), UniProt P51449)
# Sequence (P51449 other isoform, or with tags, fused parts or gaps): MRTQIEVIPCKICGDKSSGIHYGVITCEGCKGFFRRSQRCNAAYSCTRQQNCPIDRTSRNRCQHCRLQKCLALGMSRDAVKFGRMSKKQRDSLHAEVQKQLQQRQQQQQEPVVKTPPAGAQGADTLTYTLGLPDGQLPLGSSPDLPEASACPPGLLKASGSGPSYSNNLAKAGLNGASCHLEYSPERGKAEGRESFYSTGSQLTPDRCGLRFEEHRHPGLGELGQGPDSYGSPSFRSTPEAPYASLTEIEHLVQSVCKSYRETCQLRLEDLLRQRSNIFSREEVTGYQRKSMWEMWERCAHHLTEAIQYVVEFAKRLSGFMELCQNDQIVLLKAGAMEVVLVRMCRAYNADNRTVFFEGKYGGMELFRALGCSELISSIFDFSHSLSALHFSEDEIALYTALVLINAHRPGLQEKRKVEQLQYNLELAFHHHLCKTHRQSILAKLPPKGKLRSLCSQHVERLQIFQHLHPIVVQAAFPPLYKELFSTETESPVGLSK
# assay.name: RORγt 5xRORE Assay in Jurkat Cells (Assay 2)
# Assay type: cell-based
# condition.details: Nanoluc luciferase reporter, 16-18 hrs, Table 9, read-out: RORγt5X IC50 Range*

Some molecules with recorded IC50:
CCS(=O)(=O)c1ccc(CNC(=O)c2nc3c(s2)CN(C[C@H]2CC[C@H](C(F)(F)F)CC2)[C@H]3C(C)C)cc1 (relative stereo) = 100 to 1000 nM
CC(C)[C@H]1c2nc(NC(=O)Cc3ccc(C#N)cc3)sc2CN1Cc1ccc(C#N)cc1 = 100 to 1000 nM
CCS(=O)(=O)c1ccc(CC(=O)Nc2nc3c(s2)CN(C[C@@H]2CC[C@H](C(F)(F)F)NC2)[C@H]3C(C)C)nc1 (single isomer, unassigned) = > 1000 nM
CCS(=O)(=O)c1ccc(CC(=O)Nc2nc3c(s2)CN([C@H](C)c2ccccc2)[C@@H]3C(C)C)cc1 (single isomer, unassigned) = > 1000 nM
CCS(=O)(=O)c1ccc(CC(=O)Nc2nc3c(s2)CN(C[C@H]2CC[C@](C)(C#N)CC2)[C@H]3C(C)C)cc1 (single isomer, unassigned) = > 1000 nM

(Q) Respond only with IC50 recorded for `CCS(=O)(=O)c1ccc(CC(=O)Nc2nc3c(s2)CN(Cc2ccc(F)c(F)c2)[C@H]3C(C)C)cc1`
(A) > 1000 nM

(Q) Respond only with IC50 recorded for `CCS(=O)(=O)c1ccc(CC(=O)Nc2nc3c(s2)CN(c2nc(C)cc(C(F)(F)F)n2)[C@H]3C(C)C)cc1`
(A) > 1000 nM
